Ref: paper PMC11758009

target: LAT1 (Homo sapiens); test: Inhibition of L-[14C]leucine uptake in HEK293-hLAT1 cells
Sequence (Q01650 whole entry): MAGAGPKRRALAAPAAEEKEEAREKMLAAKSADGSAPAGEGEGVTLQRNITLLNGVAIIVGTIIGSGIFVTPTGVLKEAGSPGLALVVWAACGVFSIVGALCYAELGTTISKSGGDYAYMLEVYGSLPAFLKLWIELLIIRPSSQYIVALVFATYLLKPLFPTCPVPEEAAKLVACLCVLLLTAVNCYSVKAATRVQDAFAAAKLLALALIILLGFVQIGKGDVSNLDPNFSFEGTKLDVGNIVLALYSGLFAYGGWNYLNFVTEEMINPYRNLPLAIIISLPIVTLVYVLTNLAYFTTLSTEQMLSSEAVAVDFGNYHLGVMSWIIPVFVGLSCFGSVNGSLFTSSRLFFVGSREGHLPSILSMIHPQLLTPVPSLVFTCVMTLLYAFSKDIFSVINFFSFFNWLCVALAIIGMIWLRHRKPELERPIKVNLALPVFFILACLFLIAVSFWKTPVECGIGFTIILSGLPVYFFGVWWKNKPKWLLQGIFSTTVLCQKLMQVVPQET
Sequence (P08195 103-630 partner): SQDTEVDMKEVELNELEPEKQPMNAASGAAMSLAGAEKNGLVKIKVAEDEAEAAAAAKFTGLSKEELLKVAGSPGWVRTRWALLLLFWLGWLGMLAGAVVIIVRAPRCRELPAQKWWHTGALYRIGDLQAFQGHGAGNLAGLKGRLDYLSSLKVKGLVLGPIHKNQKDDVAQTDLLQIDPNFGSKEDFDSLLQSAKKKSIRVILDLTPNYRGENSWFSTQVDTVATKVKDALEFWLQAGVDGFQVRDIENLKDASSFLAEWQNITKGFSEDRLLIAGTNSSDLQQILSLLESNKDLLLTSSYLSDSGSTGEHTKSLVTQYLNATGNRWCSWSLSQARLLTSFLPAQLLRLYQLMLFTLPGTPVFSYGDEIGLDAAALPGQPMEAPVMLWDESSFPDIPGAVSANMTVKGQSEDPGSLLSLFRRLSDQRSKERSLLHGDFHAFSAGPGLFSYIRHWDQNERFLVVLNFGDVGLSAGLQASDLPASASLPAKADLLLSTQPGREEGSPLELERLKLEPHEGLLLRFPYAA
pKi: −log10 of the molar value.

# Compound, pKi
measured = [
    ("Nc1cc(COc2c(Cl)cc(C[C@H](N)C(=O)O)cc2Cl)c2oc(-c3ccccc3)nc2c1 [nanvuranlat]", 7.41),
]
